# experimentSummary: Stat Signaling Pathway (AID 446);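 also: ME-180 cervical cancer cells given 40 pM IL-6 alongside compound; SIE-controlled beta-lactamase reporter measured as 460/530 nm FRET emission ratio; % is scaled to controls: 0 for no effect and ±100 for the full control effect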
# measurementConditions: ME-180 (cervical carcinoma) SIE beta-lactamase reporter, IL-6 stimulated, 5 h; at 7.69 µM (top of the series) unless noted
Results filed as inconclusive are left out. Calls of active or inactive are those of the source. Calls follow the shape of the dose curve; as a rule, active = well fitted curve in either direction with a large enough effect (not every such curve was filed as active); inconclusive = small, poorly fitted or top-dose-only effect, or another doubt; inactive = flat fitted curve, though single readings scatter.
attributeMeasured: activity, negative = inhibition

smilesstructure=Cc1noc(C)c1-c1cc(Nc2ccccc2)ncn1 attributemeasured="activity, negative = inhibition" endpointvalue="-5.08% (inactive)"
smilesstructure=O=C(c1csnn1)N1CCC2(CC1)CN(C(c1ccccc1)c1ccccc1)C2 attributemeasured="activity, negative = inhibition" endpointvalue="-0.642% (inactive)"
smilesstructure=O=C(c1ccco1)N1CCC2(CC1)CCN(c1ncccn1)CC2 attributemeasured="activity, negative = inhibition" endpointvalue="-7.06% (inactive)"
smilesstructure=COCCn1c(=O)c(C)nc2cnc(N3CCNCC3)nc21 attributemeasured="activity, negative = inhibition" endpointvalue="-2.95% (inactive)"
smilesstructure=O=C(Cc1ccc(Cl)c(Cl)c1)OCCN1CCCC1 attributemeasured="activity, negative = inhibition" endpointvalue="15.9% [at 38 µM] (inactive)"
smilesstructure=CN(C)C(=O)c1ccc(-c2cc(Nc3ccccc3)ncn2)cc1 attributemeasured="activity, negative = inhibition" endpointvalue="4.86% (inactive)"
smilesstructure=O=C(c1ccncc1)N1CCC2(CC1)CCN(c1ccccc1)CC2 attributemeasured="activity, negative = inhibition" endpointvalue="-1.17% (inactive)"
smilesstructure=Cc1nc2cnc(N3CCOCC3)nc2n(C)c1=O attributemeasured="activity, negative = inhibition" endpointvalue="-2.49% (inactive)"
smilesstructure=CS(=O)(=O)N1CCC2(CCCN(C(=O)Nc3ccccc3)C2)CC1 attributemeasured="activity, negative = inhibition" endpointvalue="3.16% (inactive)"
smilesstructure=c1ccc2c(N3CCNCC3)nc(-c3ccc4c(c3)OCO4)nc2c1 attributemeasured="activity, negative = inhibition" endpointvalue="7.14% (inactive)"
smilesstructure=Cc1nc2cnc(N3CCOCC3)nc2n(Cc2ccc(F)cc2)c1=O attributemeasured="activity, negative = inhibition" endpointvalue="4.04% (inactive)"
smilesstructure=COCC(=O)N1CCC[C@@]2(CCN(C(=O)Nc3ccc(OC)cc3)C2)C1 attributemeasured="activity, negative = inhibition" endpointvalue="6.35% (inactive)"
smilesstructure=Cc1nc2cnc(N3CCNCC3)nc2n(Cc2ccc(F)cc2)c1=O attributemeasured="activity, negative = inhibition" endpointvalue="7.66% (inactive)"
smilesstructure=COC(=O)N1CCC2(CCCN(Cc3ccccc3OC)C2)CC1 attributemeasured="activity, negative = inhibition" endpointvalue="-10.7% (inactive)"
smilesstructure=O=C(Oc1ccccc1)N1CCC2(CC1)CN(c1ccccc1)C2 attributemeasured="activity, negative = inhibition" endpointvalue="-0.517% (inactive)"
smilesstructure=c1csc(CNc2cc(-c3ccoc3)ncn2)c1 attributemeasured="activity, negative = inhibition" endpointvalue="3.9% (inactive)"
smilesstructure=CC(C)=CCc1c2c(c3occ(-c4ccc(O)c(O)c4)c(=O)c3c1O)C=CC(C)(C)O2 attributemeasured="activity, negative = inhibition" endpointvalue="-4.46% (inactive)"
smilesstructure=CNc1ncnc2ccc(-c3ccccc3CN(C)C)cc12 attributemeasured="activity, negative = inhibition" endpointvalue="-1.81% (inactive)"
smilesstructure=Cc1noc(C)c1-c1cc(NCc2cccs2)ncn1 attributemeasured="activity, negative = inhibition" endpointvalue="7.7% (inactive)"
smilesstructure=Cc1noc(C)c1C(=O)N1CCC2(CCN(C(=O)Nc3ccccc3)CC2)CC1 attributemeasured="activity, negative = inhibition" endpointvalue="-7.75% (inactive)"
